- procedure_summary: Toxicity against HIV-1 mB in H9 cells; Range 10 to >100 uM
- Type: cell-based
- condition_description: human, read-out: TC50 (the source's name)
measured_endpoint: CC50
Output should be the measured figure followed by the unit it is expressed in.

Quick check: CC50 of CC(C)[C@H](NC(=O)OCc1ccccc1)C(=O)N[C@@H](Cc1ccccc1)[C@H](O)[C@H](O)[C@H](Cc1ccccc1)NC(=O)[C@@H](NC(=O)OCc1ccccc1)C(C)C ? 10 µM

----------
- Test system: JM1
- procedure_summary: Antiviral activity in HIV-1GB8 infected JM cells
- Assay type: functional, cell-based
- condition_description: Homo sapiens
measured_endpoint: pIC50
// pIC50 is dimensionless: -log10 of concentration (M)

Quick check: pIC50 of CC(C)(C)NC(=O)[C@H]1C[C@@H]2CCCC[C@@H]2CN1C[C@@H](O)[C@H](Cc1ccccc1)NC(=O)[C@H](CC(N)=O)NC(=O)c1ccc2ccccc2n1 ? 8.60
